meta.source: the supplement of paper PMC10515830

Tested on: Danio rerio larvae (5 dpf)
Test: difference in combined optomotor response to red, green and blue moving lines vs DMSO (percentage points); higher = stronger optomotor response than DMSO
Settings: 10 µM; exposure time 6 h
Where a name gives a salt, the structure may show the parent alone.
Returns one of Criterion met or Criterion not met; Criterion met when difference is >= 2.

{"Molecule": "COC(=O)c1ccc2c(c1)NC(=O)/C2=C(\\Nc1ccc(N(C)C(=O)CN2CCN(C)CC2)cc1)c1ccccc1", "Category label": "Criterion met"}
{"Molecule": "CCCCCOc1ccc(-c2cc(-c3ccc(C(=O)N[C@H]4C[C@@H](O)[C@@H](O)NC(=O)[C@@H]5[C@@H](O)[C@@H](C)CN5C(=O)[C@H]([C@H](O)CC(N)=O)NC(=O)[C@H]([C@H](O)[C@@H](O)c5ccc(O)c(OS(=O)(=O)O)c5)NC(=O)[C@@H]5C[C@@H](O)CN5C(=O)[C@H]([C@@H](C)O)NC4=O)cc3)no2)cc1 [Micafungin (sodium salt)]", "Category label": "Criterion not met"}
{"Molecule": "CC(C)OC(=O)CCC/C=C\\C[C@@H]1[C@@H](/C=C/[C@@H](O)COc2cccc(C(F)(F)F)c2)[C@H](O)C[C@@H]1O [Fluprostenol isopropyl ester]", "Category label": "Criterion met"}
{"Molecule": "COc1cc2nc(N3CCN(C(=O)C4CCCO4)CC3)nc(N)c2cc1OC (stereo not drawn) [Terazosin (hydrochloride)]", "Category label": "Criterion met"}
{"Molecule": "O=C(O)c1cc(/N=N/c2ccc(S(=O)(=O)Nc3ccccn3)cc2)ccc1O [Sulfasalazine]", "Category label": "Criterion met"}
{"Molecule": "CC(=O)[C@]1(O)Cc2c(O)c3c(c(O)c2[C@@H](O[C@H]2C[C@H](N)[C@H](O)[C@H](C)O2)C1)C(=O)c1ccccc1C3=O [Idarubicin (hydrochloride)]", "Category label": "Criterion not met"}
{"Molecule": "CN(C)CCC=C1c2ccccc2COc2ccccc21 [Doxepin (hydrochloride)]", "Category label": "Criterion met"}
{"Molecule": "C[C@@H](O)[C@H]1C(=O)N2C(C(=O)O)=C(S[C@@H]3CN[C@H](C(=O)Nc4cccc(C(=O)O)c4)C3)[C@H](C)[C@H]12 [Ertapenem (sodium salt)]", "Category label": "Criterion met"}
{"Molecule": "O=C(NC[C@H]1CN(c2ccc(N3CCOCC3=O)cc2)C(=O)O1)c1ccc(Cl)s1 [Rivaroxaban]", "Category label": "Criterion not met"}
{"Molecule": "COCCCC/C(=N\\OCCN)c1ccc(C(F)(F)F)cc1 [Fluvoxamine (maleate)]", "Category label": "Criterion met"}
{"Molecule": "COc1cc([C@@H]2c3cc4c(cc3[C@@H](O[C@@H]3O[C@@H]5CO[C@@H](c6cccs6)O[C@H]5[C@H](O)[C@H]3O)[C@H]3COC(=O)[C@H]23)OCO4)cc(OC)c1O [Teniposide]", "Category label": "Criterion not met"}
{"Molecule": "CN(C)CCC(c1ccc(Br)cc1)c1ccccn1 (stereo not drawn) [Brompheniramine (maleate)]", "Category label": "Criterion met"}
{"Molecule": "COc1ccc(CC(C)(C)NC[C@H](O)c2cc(O)cc3c2OCC(=O)N3)cc1 [Olodaterol]", "Category label": "Criterion met"}
{"Molecule": "C[C@@H](O)[C@H]1C(=O)N2C(C(=O)O)=C(S[C@@H]3CN[C@H](C(=O)N(C)C)C3)[C@H](C)[C@H]12 [Meropenem (hydrate)]", "Category label": "Criterion met"}
{"Molecule": "Nc1nc(NC2CC2)c2ncn([C@H]3C=C[C@@H](CO)C3)c2n1 [Abacavir (sulfate)]", "Category label": "Criterion met"}
{"Molecule": "NS(=O)(=O)c1cc2c(cc1C(F)(F)F)NC(Cc1ccccc1)NS2(=O)=O (stereo not drawn) [Bendroflumethiazide]", "Category label": "Criterion not met"}
{"Molecule": "C[C@@H]1C[C@H]2[C@@H]3CCC4=CC(=O)C=C[C@]4(C)[C@@]3(Cl)[C@@H](O)C[C@]2(C)[C@@]1(OC(=O)c1ccco1)C(=O)CCl [Mometasone Furoate]", "Category label": "Criterion met"}
{"Molecule": "CC(Oc1c(Cl)cccc1Cl)C1=NCCN1 (stereo not drawn) [Lofexidine (hydrochloride)]", "Category label": "Criterion met"}
{"Molecule": "NNCCc1ccccc1 [Phenelzine (sulfate)]", "Category label": "Criterion met"}
{"Molecule": "O=P(O)(O)C(O)(Cn1ccnc1)P(=O)(O)O [Zoledronic Acid (hydrate)]", "Category label": "Criterion met"}
{"Molecule": "Cc1cccc(Nc2ccccc2C(=O)O)c1C [Mefenamic Acid]", "Category label": "Criterion not met"}
{"Molecule": "CC(C)(C)NC[C@H](O)COc1cccc2c1CCCC2=O [Levobunolol (hydrochloride)]", "Category label": "Criterion met"}
{"Molecule": "CC(C)Nc1cccnc1N1CCN(C(=O)c2cc3cc(NS(C)(=O)=O)ccc3[nH]2)CC1 [Delavirdine (mesylate)]", "Category label": "Criterion not met"}
{"Molecule": "OC(c1cc(C(F)(F)F)nc2c(C(F)(F)F)cccc12)C1CCCCN1 (stereo not drawn) [Mefloquine (hydrochloride)]", "Category label": "Criterion not met"}
{"Molecule": "CCN[C@H]1CN(CCCOC)S(=O)(=O)c2sc(S(N)(=O)=O)cc21 [Brinzolamide]", "Category label": "Criterion not met"}
{"Molecule": "CCCCC[C@H](O)CC[C@@H]1[C@H]2Cc3cccc(OCC(=O)O)c3C[C@H]2C[C@H]1O [Treprostinil]", "Category label": "Criterion not met"}
{"Molecule": "COc1cc2nc(N3CCN(C(=O)c4ccco4)CC3)nc(N)c2cc1OC [Prazosin (hydrochloride)]", "Category label": "Criterion met"}
{"Molecule": "C[C@H]1c2cccc(O)c2C(=O)C2=C(O)[C@]3(O)C(=O)C(C(N)=O)=C(O)[C@@H](N(C)C)[C@@H]3[C@@H](O)[C@@H]21 [Doxycycline (hyclate)]", "Category label": "Criterion not met"}
